Measured property: melting point

Query :: Give the value of melting point reported for the following: Cc1ccc(C)n1-c1sccc1C(=O)O
Result :: 168 to 170 °C

Query :: Give the value of melting point reported for the following: NC(=S)c1cc(Br)cs1
Result :: 199 to 201 °C

Query :: Give the value of melting point reported for the following: CN1CCc2nc3ccccc3c(C(=O)O)c2C1
Result :: 254 to 256 °C

Query :: Give the value of melting point reported for the following: N#CCOc1cc(F)ccc1N
Result :: 59 to 61 °C

---
Query :: Give the value of melting point reported for the following: O=c1[nH]ccc2cc[nH]c12
Result :: 279 to 281 °C

Query :: Give the value of melting point reported for the following: NC(=O)CNCc1ccccc1
Result :: 90 to 92 °C

Query :: Give the value of melting point reported for the following: CNC(=O)C1(C(=O)O)CCC1
Result :: 144 to 146 °C

Query :: Give the value of melting point reported for the following: Cc1ccc(C=CC(=O)O)nc1
Result :: 163 to 165 °C

Query :: Give the value of melting point reported for the following: COC(=O)CNc1ccccc1
Result :: 45 to 47 °C

Query :: Give the value of melting point reported for the following: COc1ccc(C(=O)NCC(=O)O)cc1[N+](=O)[O-]
Result :: 98 to 100 °C

Query :: Give the value of melting point reported for the following: CC(Oc1cc(Cl)cc(Cl)c1)C(=O)O (stereo not drawn)
Result :: 142 to 144 °C

Query :: Give the value of melting point reported for the following: COC(=O)c1cc([N+](=O)[O-])c(Br)cc1F
Result :: 72 to 74 °C

Query :: Give the value of melting point reported for the following: Cc1nn(-c2ccccc2F)c(C)c1CC(=O)O
Result :: 174 to 176 °C
